Assay Explanation: soluble on expression in E. coli; label from the status in PepcDB or PDB records
Parameter: soluble on expression in E. coli

Chain	Readout Value
MSLRWLSLNTATVRKQGDLVAIIDACAKHGIRAIDPWRDQVASVGLDRAARAVRDAGLELSGYCRGGMFTSDASRRGEVRDDNRRCVDEAKALGAPCIVLVVGGLPQYSRPGSEPSKDIAAARGQVEEALADMLDYARQAGLPLAIEPLHPAYAADRACVNTTKQALDICDRLDPGRTGMLGVALDVYHIWWDPELMSQIARAGRDRLLAFHVCDWLVPTRDILNDRGMMGDGVIDIKSVRKAVEAQGFAGYSEIEIFSNDWWAKPMDEVLRTCITRHRTVVEGHHHHHH	not soluble
ARNKALKADGAFNGVEKEGLFKAMKHYGYEGLAVLVSERGHYSLKKAADVLGLGQEGLVAVKTDANNRIVVDDLKTKIAELKEQNIKPIAVIGVAGTTETGSVDPLSQIAQVCQEHNCHFHVDAAWGGATLMSNHYRHLLEGVELADSVTIDAHKQLYIPMGAGMVLFKDPDAMKSIEHHAQYILRKGSKDLGSHTLEGSRSGMAMLVYAAMHIISRPGYELLIDQSIEKARYFADLIKQQDDFELVSEPELCLLTYRYLPPLIREALDKAEGTQKEKLNELINQLTQFIQKRQRETGKSFVSRTRLNPDQWQRMNTIVFRVVLANPLTTRDILSSVLDEQREIAKQAPSLTAKIEEMASDILGA	not soluble
MGSDKIHHHHHHMLNRVHLNGLRAVETVARLGSLAAAAGELNVSVSAVSQQISRTEKQLGQALFERTASGLVLTEFGAAFATRLGAGFRELAQAVALADEASQCTLVVSVAPAFASKWLLPRLSRHFDRHPNVLLRIDASVRLANLDHSDVDIAIRLGDGEWPGVRAELLLAQEVFPVCAPSIAAKLRSIEDLAQTCAITDERSMISWDSWFKAAGVEPVTFLKGARFTDPMLCLESAIAGHGVMLAWQLLTADALTDGRLVAPFGVRAESGLGYWMVTSATKAESRKVHDFKAWIREEIETTMAQFRTLDSAA	not soluble
MGSDKIHHHHHHMKIILTTSMSGLGGTETATVRLGRLLKRHGHDIILASSDGPFVGEAQASGIRWQPVDFYRGGLAGYLKSTFAYARMLRREQPDIIDCQMARVVPACALAAKIVSPKTKIICHSHGLDAATYPKTAKLFDKLGAYIIGNCKHEREKLIRHGFPAGRIAYAYNTPPEFHFRKTEKECAVLGTLSRLDTVRAVHLMLDILKKMVGRNIPVRLNMAGIGEEMDNLKAQAKRLGIEDKVTFLGGVRDLTGYFKEVDILVNTPHCVGDHGAGVGNNILEAGLYDTPVVTYNMAGISEMVITGQTGYCIPFGDDEAFIEAVDTLIKHPELRSQMGKALHKHVETLCSDDEIYRTTMAAYEM	not soluble

====

Assay Explanation: soluble on expression in E. coli; label from the status in PepcDB or PDB records

Chain	soluble on expression in E. coli
MINMEKCLLEKYNSLLEFFKNKKVIVAYSGGVDSTLISKIASDATKTLAVTVDNGFFSENVIKKAEDCAKKYNIPQKTEKIDYLNEITSKNLENRCYNCKKRIAEELKKIKNELNYDIIVDGTIYDDIFEDRPGIKAFHEENIISPLSDLKFNKNDVFEISKYLKIDIPKKDTCMATRILSAPISKENMAKSNLAEEFIKSNFHIESYLRVRYIENIAIIELTKNESEKIFDNDSIERINTELKKIGFEKVVIDLNFK	not soluble
MAHHHHHHMGIGWEKLDNWEDVPDAGGKYGPLRGPSLVDLQGHVFAIAEAHCKDGGDCSDVGFTGIASKYLDLIGVADPTEILTADASIFGADLLKEGSEVISARNGITRPTTLVLGDSVYVLPGNYSHTGPQVGGTNERGLLLLKGTLTDEGGRKKIKWNETHVVEPQGRGDSRSLTELVGGGGSGAVLRDGTLVFPMQAKDKDGTSVLLSMRFPNSGNKWELSSETPGKGCRDPTLVKWEEKKDDERLFMMAHCAGDYYDVYRSTPHGVNWYTSGQPITRVWGNSHNRKGTVSGVDPPPQSLRKRS	not soluble
MRWNICVVGAGKIGQMIAALLKTSSNYSVTVADHDLAALAVLNRMGVATKQVDAKDEAGLAKALGGFDAVISAAPFFLTPIIAKAAKAAGAHYFDLTEDVAATNAVRALAEDSQTAFMPQCGLAPGFVGIAGAALAAEFDEIDSLHMRVGALPLYPTNALKYNLTWSTDG	not soluble

====

Assay Explanation: soluble on expression in E. coli; label from the status in PepcDB or PDB records
Parameter: soluble on expression in E. coli

Please review the following examples before continuing.
Chain	soluble on expression in E. coli
MQQASHPTVILGGGFAGLFTALHLSQQNYSYPIILIEQRDRFSFKPLLYELLSGELHSQQVYPRYQELLAGSKVKFVQDTVQSIDIHQQRVDTVSGQAFHYSNLILALGSKTTYFATPGAAEYAMPFTSGEQAIALRQHLRHKLYQAIQTSDSERRRLLLTVAIIGAGPSGIELACTLADLLPIWYDELGGDGSEIHVVLVNRSREILKGDVNSHLRCTVERAMKNRLIPVDFLFDAAVTKITPDGVECRRHGQIQMLQAGTIAWTAGTAPHPLLMELPVSQNRGRLLVKPTLQLSNFPEIFAAGDCATDSDHPQPPTAQVAYQQGIAIAQNLQRISQNKPTIPVQLEHHHHHH	not soluble
MAFVKPILLKSATCLLPRVLKLLFATLKINVGYAGEKLPDDQRGVMFAFWHGKMIAGWLLARRLYPKREISAVVSLSGDGQILSDTLDRLGFHLIRGSSSRGKEVVRRGIGVALSNGGVAAVTPDGPRGPHHRFKYGTLRLAAQHRTPVVFAEISYDNARRLKSWDRFEIPLPFSRVRVTLHVVQVPEFPTEEAFRAWADELSTGFDDALEHHHHHH	not soluble
SLMLHAQHMPGQPGTPSLVFLHGFSGDCHEWQPVGEQFHGCSRLYIDLPGHGGSAAIPVDGFADVIRLLRATLISYNILKFWLVGYSLGGRVAMMAACQGIPGLCGLVVEGGHPGLQNEQARAERRLSDGRWAERFRHEPLTEVFHDWYQQPVFASLTAQQRQALTALRSQNNGETLAAMLEATSLAVQPDLREALNALAFPFYYLCGERDSKFRALAQEVAATCHVIRNAGHNAHRENPAGVVDSLAQILRL	soluble
MKDLKLDEHTGLVLEGGGMRGVFTCGVLDYLMDHDIRFPYAIGVSAGACNGLSYASRQRGRAKFSNIDLLEKYNYIGLKHLLRKRNILDFDLLFNEFPEHILPYDYDTYFASPERFVMVTTNCMTGEANYFEEKRDKSRVIDIVRASSSLPFVCPVTYVDGVPMLDGGIVDSIPLQRAIADGYTRNVVILTRNRGYRKDTKDIRIPSFVYRKYPKLREALSRRCAVYNEQLEMVEQMEDEGKIIVIRPQKPVMVDRIERDVQKLTEFYEEGYDCARNLFEF	soluble

Summary for this sequence, "MMNQLRVTRKEPVKIRIQRKTSQNHAKGIEEMEMAVAVGVKMGQDAVEGNWKRKIIPKKTAIREILKSDEEITVRHLKIGLKSRRLPSCLIRKEPKDNNVSYEETGEGEYFEEENRKNSNNANSSNSRNTGRGNKGGKERESLNDNESSNEETEGRRSVKKTNTLNEDNNGNSIRKESNLSNDEETDEVVDTHRINTEDDEEDEEKPPTEKGTPKRKDRKSDSRSTSKGFGSGGRGRAEYTEDGDDDESNRRSVNFEKDGNGRMVKTETERSSTHAQDYDKKGSKKKKHRVSENGSEEEEVSTSFSSSSSKSSSSSSLSRRTTWDGNNNNTNRRRRNRFD" : soluble on expression in E. coli is not soluble

====

Assay Explanation: soluble on expression in E. coli; label from the status in PepcDB or PDB records
Parameter: soluble on expression in E. coli

Chain	Readout Value
MGSDKIHHHHHHMLDITMFSKADSVKGQGVGSAYLELMRLLRTHWQDEFNIKVNRYGRSAVSHYHTVNPMFYLSTFMPNRGRKIGYVHFLPETLEGSLKLPRPFQMIFNRYLISFYKRMDHIVVVNPTFIPKLEAYHIKRADVTYIPNFVSKREFYEMTKAKQLRLRQQYGYDQNKFMIIGTGQIQDRKGVPDFITLAKQNPDIQFVWAGGFSFGRITDGYQELKQVVDNPPANLSFPGIVPREKLVDYYNMADLFLLPSYNELFPMSVLEAFSCGTPVLLRDLDLYRAIIDGYYQAASDVDDMQRQIDQLSHNPAGLQFLHDKAVLAAQD	not soluble
MSLTMDVPPTIHVPLPPTSYPAFDAAIFTDIGGRKHQEDRFTLCPQLVPGRDDCAFFGVFDGTVGDFASENVKDLVVPQLISSPAWQEVTEMLRSDVPATEVDEKLPQLLDQAVDDMYKNADNELVKMCEQLNKDYASSTSVTAVLAKGFVAVGHLGDSRIAMGVETPNGLNCEFLTVDHKPDMPHEKLRIMRNGGSVEYLHNHNNKPFIRGGDFSFRKSRGEQPMQLQYSRAFGGKDLKMYGLSNQPDVRVVRVTPQHRVMILATDGLWDVMSAAQAVEIAMQARQEGRNPAQALVEMTLAEQQSRNQSADNITAMTVFFKKTDEGHHHHHH	soluble
SRLFDEVVKKELDEAALKGVILTDGELKPEEFSMHIAEQLRAGGPFGQAFPEPIFDGEFKVLHQKLVGEKHLKLMLEPLYKGHPTNVMIDGIAFNVDLRRWPDASVKTVRLAYKLDVNEFRGNQSLQLMIDHIEAK	not soluble
MAVVAHTEEDVKLLARLMRAEAEGDGRLGMLMVGNVGVNRVIADCLDFRGIRSIRQMVFQSPGGFEAVQKGYFYQRAREVDIGLARQVLRGWRYHPATNALWFFKPPEGQECPPQWFNQWNVGRYKSHCFFAPTPSDCPRVY	not soluble
MSLARTNVMIAETFPEYLVDHNLIDCEVESLCNGMVRYEKRPARRRDGSVAEGLYNAWIIFNNPRQYNSYTTEMVKATILAFRRASVDREVNAVVFTGVGDKAFCTGGNTKEYAEYYAGNPQEYRQYMRLFNDMVSSILGCDRPVICRVNGMRIGGGQEIGMACDFSIAQDLAKFGQAGPKHGSAAIGGATDFLPIMIGCEQAMVSGTLCEPFSAHKAARLGIIADVVPALKVGGTFVANPTVVTDRFLDEYGRVVQGEFKTGADFKAGQARIKEGEVDLSLLDEKVEELCAKLLETFPECMTKSLEELRKPKLQAWNLNKENSRAWLALNMMNEARIGFRAFNEGTKETGREIDFVKLRRQLAEGTPWAEELIEEGHHHHHH	soluble

Now for another entry.
Summary for this sequence, "MAHHHHHHMYGDKGPPKGYSVPRFDTNASKRCQTCSSTVHWTFECPLKNSATLSAKKSAATTVKLSPSQMLRYGIKQKSANFVSEPTEREVFDAELRELRSVLTAEVRQELKAKKSAAHKSGNDCKKHEAPLPSAAPKKEPPSDSVTMKTERTEEEE" : soluble on expression in E. coli is soluble

The origin of these recorded values is the DeepSol protein solubility set.
